Where do these numbers come from? They come from the array DNA melting data of Ke et al. (doi:10.1101/2024.01.08.574731).

The sequences listed here are annotated with their folding enthalpy.
# ASSAY_NOTES: folding enthalpy; higher = less favourable; fluorescence melt of hairpins on a sequencing array, two-state fit
# DETAILS: sodium 0.088 M
// note: answer is a bare numeric in kJ/mol

Reference set (6 entries):
GGCTTGACGAAAGTCGCC (((..(((....))))))    -60.7
GCGGTCCCCGC ((((...))))    -75.1
GATCGATGGCTCGATC ((((((....))))))    -142
GTTTTGGGAAACCAGAAC (((.(((....))).)))    -113
GCGGAGCGAAAGCACTGC ((.(.((....)).).))    -53.1
CGGGTTCGGAAACGACCG (((..(((....))))))    -83.1

API: the following record is the query input.
Req: // folding enthalpy lookup, key: GCGCCGCGAAAGCGTAGC ((..(((....)))..))
Resp: -56.7

----------
# ASSAY_NOTES: melting temperature; fluorescence melt of hairpins on a sequencing array, two-state fit, raised by 9.35 °C to match UV melts
# DETAILS: sodium 0.088 M
If the reported Tm equals or exceeds 50 °C, assign Yes. If not, assign No.

Before answering, review these 6 worked examples.
GATCACGAGGTGATC ((((((...))))))    Yes
GGTGACGGAAACGTTACC (((.(((....))).)))    Yes
GACGGCGAAAGCCTAGTC ((((((....)))..)))    No
GATCCCGTCTGGGATC ((((((....))))))    Yes
GAGTGCCCGAAAGGGCTC (((..(((....))))))    No
GGGTTTGGAAACAAACTC (.(((((....))))).)    No

Req: Is reported Tm greater than or equal to 50 °C here: GTTTCTGGAAACGGAAAC (((((.(....).)))))
Resp: No

Req: Is reported Tm greater than or equal to 50 °C here: GTCTTCGAAAGAACGAC ((((((....))).)))
Resp: No

Req: Is reported Tm greater than or equal to 50 °C here: GATCCTATAAAGGATC ((((((....))))))
Resp: Yes

Req: Is reported Tm greater than or equal to 50 °C here: GTTGAGCGAAAGCTAAAC (((.(((....))).)))
Resp: No

Req: Is reported Tm greater than or equal to 50 °C here: GGACGCGGAAACACGTCC (((((.(....).)))))
Resp: Yes

Req: Is reported Tm greater than or equal to 50 °C here: GGAATCGAAAGATGGTCC ((((((....)))..)))
Resp: No

Req: Is reported Tm greater than or equal to 50 °C here: GCTAGGCGAAAGCGAAGC (((..((....))..)))
Resp: No

Req: Is reported Tm greater than or equal to 50 °C here: GGTCGGGGAAACCTGACC ((((.((....)).))))
Resp: Yes

Req: Is reported Tm greater than or equal to 50 °C here: GCGCAGCGAAAGCAGTGC ((.(.((....)).).))
Resp: Yes

Req: Is reported Tm greater than or equal to 50 °C here: GTCGAAGAAATTCGAC ((((((....))))))
Resp: Yes
